Reference source: PubChem BioAssay (NCI)

- System: MALME-3M melanoma
- testDescription: NCI-60 one-dose screen, 48 h
- testContext: 10 µM unless noted
- Procedure: Cells are grown in 96 well plates and exposed to the test compound for 48 hours. Compounds are tested at a single concentration, which is 10^-5 M for most compounds. The reported endpoint is percent growth (GI% or GIPRCNT), where numbers from 0 - 100% represent growth inhibition, and numbers from -100% - 0 represent cell death. For example, a value of 40 represents 60% growth inhibition. A value of 0 means no net growth occurred over the course of the experiment. […]
Compounds without any hit were thinned out: in the full panel of roughly 83,000, 20% have a hit. Activity calls are given as the source filed them. The calls were made as follows: active = growth percent below 10; inactive = the rest.
The reply should name one outcome from Yes (active), No (inactive)

As a guide, the following entries are already answered.
>>> discretelabel("O=C(CCl)c1ccc([N+](=O)[O-])o1")
"Yes"
>>> discretelabel("CC(C)CCC(=O)O[C@H]1CC[C@H]2[C@@H]3CCC4=CC(=O)CC[C@]4(C)[C@H]3CC[C@]12C")
"No"
>>> discretelabel("Cc1ccc(C(=O)NCCCOc2ccc(N)cc2Cl)cc1S(=O)(=O)F")
"No"
>>> discretelabel("C#Cc1ccc2c(c1)C(c1ccccc1F)=NCC(=O)N2C")
"No"
>>> discretelabel("COc1cc(/C=C/[N+](=O)[O-])c([N+](=O)[O-])cc1OC")
"No"
>>> discretelabel("ClC1=C(Cl)C(Cl)(C2(Cl)C(Cl)=C(Cl)C(Cl)=C2Cl)C(Cl)=C1Cl")
"Yes"

Can you look up the reported call for CCCc1cc(O)c2c3c(c(=O)oc2c1)CN(C)CC3 for me?
Yes
